- Assay System: furin, P09958;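 also: purified furin at 1:10 enzyme:substrate in 50 mM HEPES pH 7.5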
- Sequence (P09958 whole entry): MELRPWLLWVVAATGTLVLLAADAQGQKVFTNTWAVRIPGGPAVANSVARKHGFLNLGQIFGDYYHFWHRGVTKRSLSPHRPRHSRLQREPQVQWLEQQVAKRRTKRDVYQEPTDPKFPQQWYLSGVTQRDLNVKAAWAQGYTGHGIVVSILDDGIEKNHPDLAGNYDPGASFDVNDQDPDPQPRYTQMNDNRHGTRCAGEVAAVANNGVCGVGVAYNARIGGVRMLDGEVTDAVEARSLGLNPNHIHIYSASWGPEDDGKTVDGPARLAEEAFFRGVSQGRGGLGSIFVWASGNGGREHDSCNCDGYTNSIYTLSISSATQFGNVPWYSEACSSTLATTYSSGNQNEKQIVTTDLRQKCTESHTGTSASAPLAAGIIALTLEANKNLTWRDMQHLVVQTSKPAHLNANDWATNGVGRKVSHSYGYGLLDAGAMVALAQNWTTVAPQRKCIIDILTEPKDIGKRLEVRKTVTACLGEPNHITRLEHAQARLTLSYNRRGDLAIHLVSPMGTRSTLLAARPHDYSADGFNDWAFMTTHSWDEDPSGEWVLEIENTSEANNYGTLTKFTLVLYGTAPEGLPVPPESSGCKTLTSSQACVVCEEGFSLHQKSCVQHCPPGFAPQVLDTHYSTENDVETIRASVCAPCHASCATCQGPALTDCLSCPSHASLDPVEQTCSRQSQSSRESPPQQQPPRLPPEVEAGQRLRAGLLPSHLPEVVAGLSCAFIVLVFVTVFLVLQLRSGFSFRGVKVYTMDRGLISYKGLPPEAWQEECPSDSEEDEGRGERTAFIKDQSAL
- Protocol Text: furin cleavage Z-score vs untreated control; higher = more cleavage, active = 3.5 or more, inactive = 1 or less, 8 variable residues between constant flanks
- Measurement Parameters: 7.5 min
This is one part of the list. No count for the full screen is at hand.
Outcome: Fulfilled for furin cleavage Z-score of at least 5; Not fulfilled for anything lower.

>>> assigned_class("CATIASPKGPAGNASASA [HC705]")
"Not fulfilled"
>>> assigned_class("CAVVCCSPSYAGNASASA [HC2059]")
"Not fulfilled"
>>> assigned_class("CAKKKRRKRKAGNASASA [FS-1218]")
"Fulfilled"
>>> assigned_class("CAEKSRAKRQAGNASASA [FS-231]")
"Fulfilled"
>>> assigned_class("CAKRKRSKRKAGNASASA [FS-1223]")
"Fulfilled"
>>> assigned_class("CAKNMRRKRKAGNASASA [FS-1222]")
"Fulfilled"
>>> assigned_class("CAGRSHSKRKAGNASASA [FS-245]")
"Not fulfilled"
